Protocol Details: Quantum yield and quantum efficiency of photorelease on irradiation
Assay type: physicochemical
Applied Conditions: product of extinction coefficient and quantum yield
Description: A solution of the given compound (3.0 mL) in a matched 1.0 cm quartz PTFE screw-cap fluorescence cuvette equipped with a stir bar was irradiated with a light source (32 LEDs emitting at the selected wavelength: λmax=365, 490, 507 nm; the bandwidths at half height=30 nm; high-pressure 450 W mercury-xenon arc lamp with a monochromator with 200-1600 nm grating set to 365±0.5 nm). The reaction progress was monitored by UV-vis spectrometry using a diode-array spectrophotometer in a kinetic mode. […]
Exercise: for every item that follows, state its recorded εΦ (quantum efficiency).

Inquiry: Query: εΦ (quantum efficiency); subject: CC1=CC(C)=[N+]2C1=C(CCl)c1c(C)cc(C)n1[B-]2(C)C
Reply text: 41,194 M^−1cm^−1

Inquiry: // repeat for CC[B-]1(CC)n2c(C)cc(C)c2C(COC(=O)Cc2ccccc2)=C2C(C)=CC(C)=[N+]21 and report
Reply text: 4,424 M^−1cm^−1

Inquiry: // repeat for CC1=CC(C)=[N+]2C1=C(COC(=O)Cc1ccccc1)c1c(C)cc(C)n1[B-]2(c1ccccc1)c1ccccc1 and report
Reply text: 583 M⁻¹ cm⁻¹

Inquiry: // repeat for CC1=C(I)C(C)=[N+]2C1=C(COC(=O)Cc1ccccc1)c1c(C)c(I)c(C)n1[B-]2(C)C and report
Reply text: 16,996 M^−1cm^−1

Inquiry: // repeat for CC1=CC(C)=[N+]2C1=C(COC(=O)Cc1ccccc1)c1c(C)cc(C)n1[B-]2(C)C and report
Reply text: 7,398 M^−1cm^−1

* * *

Protocol Details: Quantum yield and quantum efficiency of photorelease on irradiation
Format: physicochemical
Applied Conditions: solutions in methanol; λirr 365, 490, 507 nm
Binary call on Φ (quantum yield): TRUE from 0.1 upward, FALSE beneath that.

Inquiry: Determine whether this compound has Φ (quantum yield) no lower than 0.1: CC1=CC(C)=[N+]2C1=C(COC(=O)Cc1ccccc1)c1c(C)cc(C)n1[B-]2(C)C [Compound 2]
Reply text: TRUE

Inquiry: // repeat for CC1=CC(C)=[N+]2C1=C(CCl)c1c(C)cc(C)n1[B-]2(C)C [Compound 1] and report
Reply text: TRUE

Inquiry: // repeat for CC1=C(I)C(C)=[N+]2C1=C(COC(=O)Cc1ccccc1)c1c(C)c(I)c(C)n1[B-]2(C)C [Compound 6] and report
Reply text: TRUE

Inquiry: // repeat for CC[B-]1(CC)n2c(C)cc(C)c2C(COC(=O)Cc2ccccc2)=C2C(C)=CC(C)=[N+]21 [Compound 3] and report
Reply text: FALSE

Inquiry: // repeat for CC1=CC(C)=[N+]2C1=C(COC(=O)Cc1ccccc1)c1c(C)cc(C)n1[B-]2(c1ccccc1)c1ccccc1 [Compound 4] and report
Reply text: FALSE

* * *

Protocol Details: UV-Vis absorption spectroscopy (absorption maximum, extinction coefficient)
Assay type: physicochemical
Applied Conditions: absorption maximum, UV-vis
Exercise: for every item that follows, state its recorded λmax.
Numbers only here, please. The scale is nm.

Inquiry: Query: λmax; subject: CC[B-]1(CC)n2c(C)cc(C)c2C(COC(=O)Cc2ccccc2)=C2C(C)=CC(C)=[N+]21 [Compound 3]
Reply text: 513

Inquiry: // repeat for CC1=CC(C)=[N+]2C1=C(COC(=O)Cc1ccccc1)c1c(C)cc(C)n1[B-]2(C)C [Compound 2] and report
Reply text: 512

Inquiry: // repeat for CC1=C(I)C(C)=[N+]2C1=C(COC(=O)Cc1ccccc1)c1c(C)c(I)c(C)n1[B-]2(C)C [Compound 6] and report
Reply text: 538

Inquiry: // repeat for CC1=CC(C)=[N+]2C1=C(CCl)c1c(C)cc(C)n1[B-]2(C)C [Compound 1] and report
Reply text: 519

Inquiry: // repeat for CC1=CC(C)=[N+]2C1=C(COC(=O)Cc1ccccc1)c1c(C)cc(C)n1[B-]2(c1ccccc1)c1ccccc1 [Compound 4] and report
Reply text: 517
